system: MDA-MB-435 melanoma; test: NCI-60 one-dose screen, 48 h (100 = growth as untreated, 0 = no growth, -100 = all killed); settings: 10 µM unless noted
The panel holds about 83,000 compounds, 20% with a hit somewhere; the sample as a whole holds those more often.
Assignment: determine reported growth for the given compounds.
Give bare numbers, in %.

{"columns": ["COMPOUND", "TARGET", "READING"],
 "data": [
  ["CCCC(=O)NC(c1ccc2c(c1)OCO2)c1cc(Cl)c2cccnc2c1O (stereo not drawn)", "MDA-MB-435 melanoma", 37.5],
  ["COC1C(O)CC(OC2CC(OC3CC(O[C@@H]4C(=O)c5c(cc6cc(OC7CC(OC8CC(O)C(O)C(C)O8)C(O)C(C)O7)c(C)c(O)c6c5O)CC4[C@H](OC)C(=O)O)OC(C)C3O)OC(C)C2O)OC1C (stereo partly drawn)", "MDA-MB-435 melanoma", 28.8],
  ["O=C(CSc1nnnn1-c1ccccc1)Nc1ccc(Oc2ccccc2)cc1", "MDA-MB-435 melanoma", 106],
  ["O=C(O)c1cn(C2CC2)c2cc(N3CCN(C(=O)N/N=C/c4cccc5ccccc45)CC3)c(F)cc2c1=O", "MDA-MB-435 melanoma", 104],
  ["CN(C)c1ccc(C(=S)c2ccc(N(C)C)cc2)cc1", "MDA-MB-435 melanoma", -13.2],
  ["C=C(C)[C@@H]1CC[C@]2(C(=O)Nc3ccccn3)CC[C@]3(C)[C@H](CC[C@@H]4[C@@]5(C)CCCNC(C)(C)[C@@H]5CC[C@]43C)[C@@H]12", "MDA-MB-435 melanoma", 2.12],
  ["N=C(N)c1ccc(-c2ccc(-c3ccccc3)o2)o1", "MDA-MB-435 melanoma", -32.9]
]}

Turning now to a further compound:
IN: What does the record list as growth for N#C/C(=C\c1ccc(-c2cccc(Cl)c2)o1)C(=O)Nc1ncc(Cc2ccc(Cl)cc2)s1 ?
OUT: 56.5
